src = the RNAGym collection of RNA variant scans (doi:10.7554/elife.90254)

B1: LINE1-mini (parent)
chain: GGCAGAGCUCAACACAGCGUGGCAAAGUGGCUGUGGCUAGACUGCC

variants of: B1; assay: self-cleavage, relative activity (ratio to wild type); higher = more cleavage; in vitro, sequencing; the parent is a self-cleaving ribozyme
readout_name: self-cleavage
Respond numerically, and do not add a unit to the figure.

GCCAGAGCUCAACACAGCGUGGCAAAGUGGCUGUGGCUACACUGCC [G2C G40C] = 0.07
GGGCGAGCUCAACACAGCGUGGCAAAGUGGCUGUGGCUAGACUGCC [C3G A4C] = 0.11
GCCAAAGCUCAACACAGCGUGGCAAAGUGGCUGUGGCUAGACUGCC [G2C G5A] = 0.05
GGCAGAGCUCAACACAGCGUUGCAAAGAGGCUGUGGCUAGACUGCC [G21U U28A] = 0.51
GGCAGAGCUCAACACAACGUGGCAAACUGGCUGUGGCUAGACUGCC [G17A G27C] = 0.19

As a next step, examine the variant that follows.
I would be grateful if you could share the reported self-cleavage for CGCAGAGCUCAACACAGCGUGGCAAAGUGGCUGUGGCUUGACUGCC [G1C A39U] .
0.06
